tested on: MRSA ATCC BAA-44; experiment: MIC on MRSA ATCC BAA-44; type: cell-based, S. aureus; settings: no serum (note in the cell)
measured.quantity: MIC (μM) in MRSA BAA-44

Input line: Complete the entry with MIC (μM) in MRSA BAA-44 for Cl.NCCCC(=O)Oc1cccc2[nH]cc(/C=N/Nc3ccc(F)cc3)c12
Output line: <25 in no μM

Input line: Complete the entry with MIC (μM) in MRSA BAA-44 for CC(=O)O.Nc1ccc(N/N=C/c2c[nH]c3cccc(OCc4ccccc4)c23)cc1
Output line: 50 (no serum) μM

Input line: Complete the entry with MIC (μM) in MRSA BAA-44 for Brc1ccc(N/N=C/c2c[nH]c3cccc(OCc4ccccc4)c23)cc1
Output line: 25 (no serum) μM

Input line: Complete the entry with MIC (μM) in MRSA BAA-44 for NCCCC(=O)Oc1cccc2[nH]cc(/C=N/Nc3ccc(F)cc3)c12
Output line: 100 no serum μM

----------
Please provide measured MIC for the entries that follow.
system: A. baumannii ATCC BAA-1797; assay: MIC on A. baumannii ATCC BAA-1797; assay type: cell-based; settings: Acinetobacter baumannii, ATCC 1797 / ATCC BAA-1797, read-out: MIC (μM) in MDR A. baumannii ATCC 1797 40% FBS, 40% FBS

Input line: Complete the entry with MIC for Clc1ccccc1N/N=C/c1c[nH]c2ccccc12 [Compound 12]
Output line: > 100 µM

Input line: Complete the entry with MIC for C(=N\NC1=NCCCN1)/c1c[nH]c2cccc(OCc3ccccc3)c12 [Compound 35, 2,2,2-trifluoroacetate]
Output line: > 100 µM

Input line: Complete the entry with MIC for N#Cc1ccc(N/N=C/c2c[nH]c3cccc(OCc4ccccc4)c23)cc1 [Compound 28]
Output line: 100 µM

Input line: Complete the entry with MIC for C(=N\Nc1ncccn1)/c1c[nH]c2ccccc12 [Compound 19]
Output line: > 100 µM

Input line: Complete the entry with MIC for Oc1cccc2[nH]cc(/C=N/Nc3ccc(F)cc3)c12 [Compound 21]
Output line: > 100 µM

Input line: Complete the entry with MIC for Cn1cc(/C=N/Nc2ccc(Br)cc2)c2c(OCc3ccccc3)cccc21 [Compound 45]
Output line: 50 µM

Input line: Complete the entry with MIC for O=S(=O)(N/N=C/c1c[nH]c2cccc(OCc3ccccc3)c12)c1ccccc1 [Compound 29]
Output line: > 100 µM

Input line: Complete the entry with MIC for FC(F)(F)c1ccc(N/N=C/c2c[nH]c3cccc(OCc4ccccc4)c23)cc1 [Compound 37]
Output line: > 100 µM

Input line: Complete the entry with MIC for CC(C)(C)OC(=O)N[C@@H](CCCNC(=N)N)C(=O)Oc1cccc2[nH]cc(/C=N/Nc3ccc(Cl)cc3)c12 [Compound 17]
Output line: > 100 µM

Input line: Complete the entry with MIC for Clc1ccc(N/N=C/c2c[nH]c3ccc(Br)cc23)cc1 [Compound 15]
Output line: 50 µM

Input line: Complete the entry with MIC for CCCCCC(=O)Oc1cccc2[nH]cc(/C=N/Nc3ccc(Br)cc3)c12 [Compound 22]
Output line: > 100 µM

Input line: Complete the entry with MIC for Nc1cccc2c(S(=O)(=O)N/N=C/c3c[nH]c4cccc(OCc5ccccc5)c34)cccc12 [Compound 33]
Output line: > 100 µM

Input line: Complete the entry with MIC for N=C(N)NCCC[C@H](N)C(=O)Oc1cccc2[nH]cc(/C=N/Nc3ccc(Cl)cc3)c12 [Compound 16]
Output line: > 100 µM

Input line: Complete the entry with MIC for NCCCC(=O)Oc1cccc2[nH]cc(/C=N/Nc3ccc(F)cc3)c12 [Compound 41]
Output line: > 100 µM

Input line: Complete the entry with MIC for Nc1cccc2[nH]cc(/C=N/Nc3ccc(Cl)cc3)c12 [Compound 14]
Output line: 50 µM

Input line: Complete the entry with MIC for CC(C)(C)OC(=O)Nc1cccc2[nH]cc(/C=N/Nc3ccc(Cl)cc3)c12 [Compound 18]
Output line: > 100 µM

Input line: Complete the entry with MIC for COc1ccc(N/N=C/c2c[nH]c3cccc(OCc4ccccc4)c23)cc1 [Compound 30]
Output line: > 100 µM

Input line: Complete the entry with MIC for CC(=O)n1cc(/C=N/Nc2ccc(Cl)cc2)c2ccccc21 [Compound 24]
Output line: > 100 µM
